Test system: endogenous SSPN protein with an N-term fusion protein (C2C12 cells)
assay text: C2C12 HiBiT assay (SSPN-HiBiT myotubes, primary screen)
Assay type: cell-based, murine
experimental conditions: treated day 2, harvested day 4 of differentiation, concentration not given
readout kind: SSPN-HiBiT fold change over vehicle (fold)

{"molecule": "O=C(Nc1ccc(C(=O)N2CCCOCC2)cc1)c1cc2cc(F)ccc2[nH]c1=O [DDL-463]", "SSPN-HiBiT fold change over vehicle / fold": 1.4}
{"molecule": "COc1ccc2cc(C(=O)Nc3ccc(C(=O)N4CCCOCC4)cc3)c(=O)[nH]c2c1 [DDL-460]", "SSPN-HiBiT fold change over vehicle / fold": 1.1}
{"molecule": "CC(C)Oc1ccc2[nH]c(=O)c(C(=O)Nc3ccc(C(=O)N4CCCOCC4)cc3)cc2c1 [DDL-762]", "SSPN-HiBiT fold change over vehicle / fold": 1.4}
{"molecule": "O=C(Nc1ccc(C(=O)N2CCCOCC2)cc1)c1cc2cc(Br)ccc2[nH]c1=O [DDL-496]", "SSPN-HiBiT fold change over vehicle / fold": 1.3}

====

Test system: endogenous SSPN protein with an N-term fusion protein (C2C12 cells)
assay text: C2C12 HiBiT assay (SSPN-HiBiT myotubes, primary screen)
Format: cell-based, murine
experimental conditions: treated day 2, harvested day 4 of differentiation, concentration not given
readout kind: SSPN-HiBiT fold change over vehicle

{"compound": "CC(C)Oc1ccc2cc(C(=O)Nc3ccc(C(=O)N4CCCOCC4)cc3)c(=O)oc2c1", "observed value": "~0.9 fold"}
{"compound": "COc1ccc2[nH]c(=O)c(C(=O)NC3=NNC(C(=O)N4CCCOCC4)N3)cc2c1 (stereo not drawn)", "observed value": "~1 fold"}

# ---- query compound ----
Ask | # get_value(readout= SSPN-HiBiT fold change over vehicle, system= endogenous SSPN protein with an N-term fusion protein (C2C12 cells)) for O=C(Nc1ccc(C(=O)N2CCCOCC2)cc1)c1cc2ccc(F)cc2[nH]c1=O
Reply | ~1 fold
